These data points were gathered from ChEMBL document CHEMBL1132205.

Test: Octanol-water apparent distribution coefficient measured in TRIS buffer at a pH 7.4.
Type: physicochemical
TEST READOUT: K app

QUERY SMILES: O=C(O)[C@H]1CSC(c2ccc(O)cc2O)=N1
TEST READOUT: K app
OBSERVED VALUE: 0.063
--
QUERY SMILES: O=C(O)[C@H]1CSC(c2ncccc2O)=N1
TEST READOUT: K app
OBSERVED VALUE: 0.013
--
QUERY SMILES: O=C(O)[C@H]1CSC(c2ccccc2O)=N1
TEST READOUT: K app
OBSERVED VALUE: 0.12
--
QUERY SMILES: C[C@]1(C(=O)O)CSC(c2ncccc2O)=N1
TEST READOUT: K app
OBSERVED VALUE: 0.017

###

Assay: log P value measured in TRIS buffer at a pH 7.4.
Type: physicochemical
TEST READOUT: logD

QUERY SMILES: O=C(O)[C@H]1CSC(c2ncccc2O)=N1
OBSERVED VALUE: -1.87
//
QUERY SMILES: C[C@]1(C(=O)O)CSC(c2ncccc2O)=N1
OBSERVED VALUE: -1.77
//
QUERY SMILES: O=C(O)[C@H]1CSC(c2ccc(O)cc2O)=N1
OBSERVED VALUE: -1.2
//
QUERY SMILES: O=C(O)[C@H]1CSC(c2ccccc2O)=N1
OBSERVED VALUE: -0.93

###

Test system: Monkey
Assay: Efficiency of the chelator [(net iron excretion ) / (total iron binding capacity of chelator)] to induce iron clearance in monkey at a peroral dose of 150 uMol/kg.
Assay type: functional, Cercopithecidae
As shown below, each of these molecules has a reported Efficiency value.
TEST READOUT: Efficiency (%)

MOLECULE: O=C(O)[C@H]1CSC(c2ncccc2O)=N1
TEST READOUT: Efficiency
OBSERVED VALUE: 4.8
//
MOLECULE: O=C(O)[C@H]1CSC(c2ccc(O)cc2O)=N1
TEST READOUT: Efficiency
OBSERVED VALUE: 4.2
//
MOLECULE: C[C@]1(C(=O)O)CSC(c2ncccc2O)=N1 [DESFERRITHIOCIN]
TEST READOUT: Efficiency
OBSERVED VALUE: 16.1
//
MOLECULE: O=C(O)[C@H]1CSC(c2nc3ccccc3cc2O)=N1
TEST READOUT: Efficiency
OBSERVED VALUE: 3.5
